- tgt: CYP4B1 (Oryctolagus cuniculus)
- experimental.details: in vitro
- condition.description: pH 7.4, Regioselectivity BzH:Arom

- molecular.string: "COc1ccccc1C"
  tgt: "CYP4B1 (Oryctolagus cuniculus)"
  selectivity ratio: 22

###

- tgt: CYP4B1 (Oryctolagus cuniculus, UniProt P15128)
- Sequence (P15128 whole entry): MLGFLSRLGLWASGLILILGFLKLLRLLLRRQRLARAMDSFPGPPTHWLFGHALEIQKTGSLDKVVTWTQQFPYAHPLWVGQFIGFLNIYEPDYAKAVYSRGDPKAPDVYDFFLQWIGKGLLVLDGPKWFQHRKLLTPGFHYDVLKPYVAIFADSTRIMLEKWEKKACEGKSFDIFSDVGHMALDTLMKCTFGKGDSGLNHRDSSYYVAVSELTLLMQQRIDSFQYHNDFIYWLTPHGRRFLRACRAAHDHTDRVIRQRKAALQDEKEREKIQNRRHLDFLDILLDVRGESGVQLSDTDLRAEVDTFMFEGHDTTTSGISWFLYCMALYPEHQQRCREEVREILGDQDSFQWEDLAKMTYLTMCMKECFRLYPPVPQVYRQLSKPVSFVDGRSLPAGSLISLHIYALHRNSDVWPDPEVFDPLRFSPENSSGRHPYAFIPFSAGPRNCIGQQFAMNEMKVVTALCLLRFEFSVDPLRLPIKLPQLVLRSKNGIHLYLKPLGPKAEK
- experimental.details: in vitro
- condition.description: pH 7.4, Regioselectivity BzH:ODAlk

- molecular.string: "COc1ccccc1C"
  selectivity ratio: 0.7

###

- tgt: CYP2B1 (Rattus norvegicus, UniProt P00176)
- Sequence (P00176 whole entry): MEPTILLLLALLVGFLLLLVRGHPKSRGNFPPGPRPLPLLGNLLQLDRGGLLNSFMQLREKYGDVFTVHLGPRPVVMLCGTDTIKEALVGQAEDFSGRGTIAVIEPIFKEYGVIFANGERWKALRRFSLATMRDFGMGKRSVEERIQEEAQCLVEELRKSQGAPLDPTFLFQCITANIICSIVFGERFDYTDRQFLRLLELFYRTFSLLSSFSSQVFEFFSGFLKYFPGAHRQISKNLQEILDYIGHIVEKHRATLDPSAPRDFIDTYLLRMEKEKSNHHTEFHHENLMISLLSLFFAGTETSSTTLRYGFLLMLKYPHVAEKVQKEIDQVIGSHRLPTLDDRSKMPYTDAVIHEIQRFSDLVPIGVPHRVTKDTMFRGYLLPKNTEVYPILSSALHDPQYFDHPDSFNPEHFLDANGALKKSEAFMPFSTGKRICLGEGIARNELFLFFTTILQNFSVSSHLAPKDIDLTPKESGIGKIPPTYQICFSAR
- experimental.details: in vitro
- condition.description: pH 7.4, Regioselectivity BzH:ODAlk

- molecule: "COc1ccccc1C [o-Methylanisole, o-methylanisole]"
  selectivity ratio: 1.2
